Parameter: self-splicing fitness (ln). Scope: all listed entries.
- test.name: self-splicing fitness, log relative to wild type (ln ratio); higher = more splicing; Tetrahymena group I intron in knt gene, E. coli kanamycin selection, DiMSum; sequences stand for … in CUCUCU…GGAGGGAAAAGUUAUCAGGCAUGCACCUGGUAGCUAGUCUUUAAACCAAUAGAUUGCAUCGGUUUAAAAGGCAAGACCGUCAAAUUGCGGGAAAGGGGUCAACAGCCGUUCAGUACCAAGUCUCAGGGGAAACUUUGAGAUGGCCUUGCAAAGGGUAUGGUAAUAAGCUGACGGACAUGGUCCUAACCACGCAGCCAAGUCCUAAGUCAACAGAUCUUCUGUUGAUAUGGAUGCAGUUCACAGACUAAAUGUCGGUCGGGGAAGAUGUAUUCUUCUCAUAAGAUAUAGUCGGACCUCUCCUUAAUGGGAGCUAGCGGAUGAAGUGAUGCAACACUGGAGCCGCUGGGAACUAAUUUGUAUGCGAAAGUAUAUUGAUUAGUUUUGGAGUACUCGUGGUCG;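 note: selection with 25 µg/mL kanamycin versus none on LB agar overnight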
- reported.conditions: 30 °C
observation.type: self-splicing fitness (ln)

>  <record.sequence>
GAUUAGCAAUAUUACGGACG

>  <assay.value>
-0.885

$$$$
>  <record.sequence>
AGGGAGCAAUAUUACGGAAC

>  <assay.value>
-3.01

$$$$
>  <record.sequence>
CCGGAGCAAUAUUACGCUUA

>  <assay.value>
-2.45

$$$$
>  <record.sequence>
GAUUAGCAAUAUUACGCAGC

>  <assay.value>
-2.35

$$$$
>  <record.sequence>
AUGCAGCAAUAUUACGCGAG

>  <assay.value>
-3.82

$$$$
>  <record.sequence>
GCGGAGCAAUAUUACGUAUU

>  <assay.value>
-3.85

$$$$
>  <record.sequence>
CACAAGCAAUAUUACGGCGG

>  <assay.value>
-0.406

$$$$
>  <record.sequence>
GUUAAGCAAUAUUACGCCAC

>  <assay.value>
-3.63

$$$$
>  <record.sequence>
AAUGAGCAAUAUUACGGCCC

>  <assay.value>
-1.23

$$$$
>  <record.sequence>
GGAAAGCAAUAUUACGUAAU

>  <assay.value>
-1.3

$$$$
>  <record.sequence>
GGAAAGCAAUAUUACGCAGA

>  <assay.value>
-3.75

$$$$
>  <record.sequence>
UUAAAGCAAUAUUACGCUUU

>  <assay.value>
-4.36

$$$$
>  <record.sequence>
CUUUAGCAAUAUUACGUGAA

>  <assay.value>
-3.77

$$$$
>  <record.sequence>
UGCCAGCAAUAUUACGCUGU

>  <assay.value>
-3.59

$$$$
>  <record.sequence>
GUUGAGCAAUAUUACGGAGU

>  <assay.value>
-3.52

$$$$
>  <record.sequence>
UACAAGCAAUAUUACGCGGG

>  <assay.value>
-2.43

$$$$
